experimental-details: chemical genetic growth profiling, strain panel (AID 1159580);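 further: tested at 20 µM; growth read once vehicle control cultures reached saturation at 30 °C; 1 = growth at the plate median or of vehicle wells; lower values mean less growth of the strain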
protocol-conditions: S. cerevisiae deletion strains, growth OD, locus YLR039C, strain RIC1, active compounds read low
The whole screen tested about 5,500 compounds, of which about 2,000 (36%) were called active. Roughly 18% stayed inconclusive and do not appear here. The list shows a part of the results.
# normalized growth values compiled below

molecule: O=C1c2ccccc2C(=O)N1CN(CCSc1ccccc1)CN1C(=O)c2ccccc2C1=O
normalized growth: 0.986
//
molecule: c1ccc(-c2csc(-c3ccncc3)n2)cc1
normalized growth: 0.371
//
molecule: N=C(N)N
normalized growth: 1.01
//
molecule: N/C(=N/OC(=O)c1ccccc1)c1ccc(-c2csnn2)cc1
normalized growth: 1.03
//
molecule: CNCCCC12CCC(c3ccccc31)c1ccccc12
normalized growth: 1.29
//
molecule: NC(N)=NC(N)=Nc1ccc2c(c1)OCCO2
normalized growth: 1
//
molecule: CS(=O)(=O)c1ccc([C@@H](O)[C@@H](CO)NC(=O)C(Cl)Cl)cc1
normalized growth: 0.947
//
molecule: CC1(C)CC2C1CC[C@]1(CBr)CCC3C(CC(=O)O)C(=O)O[C@@]32C1 (stereo partly drawn)
normalized growth: 1.07
//
molecule: COc1c(C)c2c(c(C)c1Cl)Oc1c(Cl)c(OC)c(Cl)c(C)c1C(=O)O2
normalized growth: 1.06
//
molecule: OCc1ccccc1-c1ccccc1
normalized growth: 0.952
//
molecule: O=C(O)c1cc(O)c2c(c1)[C@@H]([C@H]1c3cc(C(=O)O)cc(O)c3C(=O)c3c(O[C@H]4O[C@H](CO)[C@@H](O)[C@H](O)[C@H]4O)cccc31)c1cccc(O[C@H]3O[C@H](CO)[C@@H](O)[C@H](O)[C@H]3O)c1C2=O
normalized growth: 1.03
//
molecule: Cc1cccc(C)c1N=C1SCCS1
normalized growth: 0.941
//
molecule: NNC(=S)Nc1ccc2c(c1)OCCO2
normalized growth: 0.983
//
molecule: COC(=O)c1c(OC)cc2c(c1C)Oc1c(Cl)c(O)c(Cl)c(C)c1C(=O)O2
normalized growth: 0.796
//
molecule: CC(C)(C)NCC(O)c1ccc(O)c(CO)c1 (stereo not drawn)
normalized growth: 1.06
//
molecule: Cc1cc(=O)[nH]c(=S)[nH]1
normalized growth: 1.03
//
molecule: Cc1ccc2c(c1)C1(C)CCCC(C)(C(=O)O)C1CC2 (stereo not drawn)
normalized growth: 0.862
//
molecule: CC(CCc1ccccc1)NCC(O)c1ccc(O)c(C(N)=O)c1 (stereo not drawn)
normalized growth: 1.05
//
molecule: N[C@@H](CCC(=O)N[C@@H](CS)C(=O)NCC(=O)O)C(=O)O
normalized growth: 0.981
//
molecule: O=C(O)c1cccnc1
normalized growth: 0.982
//
molecule: Fc1cc(F)cc(COc2cc(Cl)cc(Cl)c2)c1
normalized growth: 1.01
//
molecule: CCCN(CCC)S(=O)(=O)c1ccc(C(=O)O)cc1
normalized growth: 1.02
//
molecule: COc1c(Br)cc(/C(N)=N\OC(=O)c2c(-c3c(Cl)cccc3Cl)noc2C)cc1Br
normalized growth: 1.09

---

experimental-details: chemical genetic growth profiling, strain panel (AID 1159580);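 further: tested at 20 µM; growth read once vehicle control cultures reached saturation at 30 °C; 1 = growth at the plate median or of vehicle wells; lower values mean less growth of the strain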
protocol-conditions: S. cerevisiae deletion strains, growth OD, locus YOR069W, strain VPS5, active compounds read low
The whole screen tested about 5,500 compounds, of which about 2,000 (36%) were called active. Roughly 18% stayed inconclusive and do not appear here. The list shows a part of the results.
Let's look at some molecules and their measured normalized growth.
recorded-metric: normalized growth

molecule: C=C1c2c(Cl)ccc(O)c2C(O)=C2C(=O)[C@]3(O)C(O)=C(C(N)=O)C(=O)[C@@H](N(C)C)[C@@H]3[C@@H](O)[C@H]12
reported-value: 0.974
--
molecule: CN(C)CCCN1c2ccccc2CCc2ccccc21
reported-value: 1
--
molecule: CN(C)CCCN1c2ccccc2Sc2ccc(C(F)(F)F)cc21
reported-value: 0.987
--
molecule: C=C(C)C1CCC(C)(O)C2CC3OC3(C)C2C1 (stereo not given)
reported-value: 1.01
--
molecule: CC(C)CCCC(C)C1CCC2C3CC[C@H]4C[C@@H](O)CC[C@]4(C)C3CC[C@]12C (stereo not given in full)
reported-value: 1
--
molecule: Cc1cc(=O)[nH]c(=S)[nH]1
reported-value: 1.01
--
molecule: Nc1ccc(C(=O)O)cc1
reported-value: 1.01
--
molecule: O=C1NC(O)=NC1(c1ccccc1)c1ccccc1
reported-value: 1.01
--
molecule: CC(=O)O[C@H]1CC[C@@]2(C)C(C[C@@H](OC(C)=O)[C@@]3(C)C4=CC(=O)O[C@@H](c5ccoc5)[C@]4(C)CCC23)C1(C)C (stereo not given in full)
reported-value: 1
--
molecule: Cc1ccc2c(c1)C1(C)CCCC(C)(C(=O)O)C1CC2 (stereo not given)
reported-value: 1
--
molecule: CC(C)=CCc1c2c(c3occ(-c4ccc(O)c(O)c4)c(=O)c3c1O)C=CC(C)(C)O2
reported-value: 0.546
--
molecule: CC(C)=CCc1c2c(c3occ(-c4ccc(O)cc4)c(=O)c3c1O)C=CC(C)(C)O2
reported-value: 0.87
--
molecule: CC(C)=CCCC(C)C1CC[C@@]2(C)C3=C(CC[C@]12C)C1(C)CC[C@H](O)C(C)(C)C1CC3 (stereo not given in full)
reported-value: 1.02
--
molecule: C=C(C)C1(O)OC(=O)C=C1OC (stereo not given)
reported-value: 0.985
--
molecule: CNNC
reported-value: 1.01
--
molecule: COc1ccc(C2Sc3ccccc3N(CCN(C)C)C(=O)C2OC(C)=O)cc1 (stereo not given)
reported-value: 1.01
--
molecule: OC[C@H]1O[C@@](CO)(O[C@@H]2O[C@H](CO)[C@@H](O)[C@H](O)[C@H]2O)[C@@H](O[C@@H]2O[C@H](CO)[C@@H](O)[C@H](O)[C@H]2O)[C@@H]1O
reported-value: 1.02
--
molecule: C=C1c2cccc(O)c2C(O)=C2C(=O)[C@]3(O)C(O)=C(C(N)=O)C(=O)[C@@H](N(C)C)[C@@H]3[C@@H](O)[C@H]12
reported-value: 1
--
molecule: CN(C)[C@@H]1C(=O)C(C(N)=O)=C(O)[C@@]2(O)C(=O)C3=C(O)c4c(O)cccc4[C@@](C)(O)[C@H]3[C@H](O)[C@@H]12
reported-value: 1.01
--
molecule: C[n+]1ccccc1/C=N/O
reported-value: 1.01
--
molecule: CC(C)CC(NC(=O)OCC1c2ccccc2-c2ccccc21)C(=O)O (stereo not given)
reported-value: 1
--
molecule: CC(=O)O[C@@H]1C=C[C@@]2(C)C(C[C@@H](OC(C)=O)[C@@]3(C)C4=CC(=O)O[C@@H](c5ccoc5)[C@]4(C)CCC23)C1(C)C (stereo not given in full)
reported-value: 1.01
--
molecule: CC(C)CCCC(C)C1CCC2C3=CC[C@H]4C[C@@H](O)CC[C@]4(C)C3CC[C@@]21C (stereo not given in full)
reported-value: 1.01
--
molecule: CC(C)c1ccc2c(c1)CCC1C(C)(C(N)=O)CCCC21C (stereo not given)
reported-value: 0.966
--
molecule: CS(=O)(=O)c1ccc([C@@H](O)[C@@H](CO)NC(=O)C(Cl)Cl)cc1
reported-value: 0.991
